tested on: Noggin (protein binding on small-molecule microarray); assay: small molecules binding Noggin protein – biochemical, 635/667 nm fluorescence, primary screen (AID 1095); conditions: 635 nm fluorescence, higher = more signal;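 also: score merges 667 nm feature fluorescence with signal to noise over triplicate slides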
observationType: composite z-score
Respond using a number only.

• CCCCCN1CC=CC23O[C@@H]4/C=C\CCC(C)OC(=O)C4[C@H]2C(=O)N(C(CO)C(C)C)[C@@H]3C1=O (stereo partly specified) = -0.087
• CCCCCN1CC=CC23O[C@@H]4C=CCCOC(=O)C4[C@H]2C(=O)N(CCCCCCO)[C@@H]3C1=O (stereo partly specified) = -0.362

For the compound C=CC[C@@]1(C(=O)NCCCOC)N=C(c2ccc(OCCCO)cc2)O[C@@H]1c1ccccc1 , what composite z-score is on record?
0.0729

For the compound CCCCCN1CC=CC23O[C@@H]4/C=C\CCCOC(=O)C4[C@H]2C(=O)N(C(C)CO)[C@@H]3C1=O (stereo partly specified) , what composite z-score is on record?
-1.33

For the compound CCCC[C@@H](O)C1=C(COC)C[C@H]2C(=O)N(C)C(=O)[C@H]2[C@H]1CO , what composite z-score is on record?
0.578

For the compound CCCC[C@@H](O)C1=C(COC)C[C@H]2C(=O)N(Cc3ccccc3)C(=O)[C@H]2[C@H]1CO , what composite z-score is on record?
1.18

---

test system: Inhibin beta A chain (activin A); assay: small molecules binding activin A – biochemical, small-molecule microarray, 635 nm fluorescence scan, primary screen (AID 1107); conditions: INHBA, higher = more signal;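 also: mouse activin A protein probed at 4.33 µg/mL on printed slides; score merges bound-protein fluorescence near 667 nm with spot signal-to-noise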
observationType: composite z-score
Respond using a number only.

Worked set:
* C=C(COC)/C(=C/C[C@H](OC(=O)c1ccncc1)c1ccccc1OCCO)c1cc(C(=O)OC)ccc1OC | 1
* Cc1ccc(S[C@]2(C(=O)NCCN3CCOCC3)CC(=O)N(Cc3ccccc3Cl)[C@@H]2c2ccc(CO)cc2I)cc1 | 1.07
* [N-]=[N+]=Nc1ccccc1[C@@H]1OC(c2ccc(OCCCO)cc2)=N[C@]1(Cc1ccccc1)C(=O)N1CCCCC1 | 0.441
* COc1ccc(CCNC(=O)[C@@H]2c3ccccc3C(=O)N(C3CCCCC3)[C@H]2c2ccc(CO)cc2)cc1 | 0.177
* CC(C)c1ccc(NN2C(C(O)c3ccc(F)cc3)C=CC3C(=O)N(c4ccccc4)C(=O)C32)cc1 (stereo not drawn) | 0.869

Request - read-out composite z-score | tested on Inhibin beta A chain (activin A) | molecule Oc1ccc2cc[n+](Cc3cc4c(cc3Br)OCO4)cc2c1
0.398

Request - read-out composite z-score | tested on Inhibin beta A chain (activin A) | molecule CCCCN1CC=CC23O[C@@H]4/C=C\CCCOC(=O)C4[C@H]2C(=O)N(CCO)[C@@H]3C1=O (stereo partly drawn)
-0.677

Request - read-out composite z-score | tested on Inhibin beta A chain (activin A) | molecule COC(=O)[C@@]1(Cc2ccc(F)cc2)[C@H]2c3cc(C(=O)N(C)C)n(Cc4ccc(OC(F)(F)F)cc4)c3C[C@H]2CN1C(=O)c1ccccc1
0.401

---

tested on: Fibrinogen (Alexa647-labelled); assay: Alexa647-fibrinogen binding to printed small molecules – biochemical, small-molecule microarray, 635/667 nm fluorescence, artefact control for SMM control-protein annotation, profiling panel (AID 1131); conditions: fibrinogen-A647 binding fluorescence, higher = more signal;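 also: z-score merges 667 nm fluorescence with per-spot signal-to-noise over triplicate slides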
composite z-score values by entry
Respond using a number only.

Worked set:
• CCOC(=O)C[C@H]1[C@H](OC(=O)c2ccc(C(=O)c3ccccc3)cc2)[C@@H](NC(=O)CC(C)C)c2cc(OCCCO)ccc2N1C(=O)c1ccccc1 = 0.965
• C=CC[C@]1(C(=O)N2CCOCC2)COC(c2ccc(OCCCO)cc2)=N1 = 0.837
• O=C1N(Cc2ccccc2)c2ccccc2C[C@]12N=C(c1ccc(OCCCO)cc1)O[C@@H]2c1ccccc1 = 0.529
• C#CCN(Cc1ccccc1Br)[C@H](/C=C/c1ccccc1)[C@@H](O)Cc1ccccc1 = -1.24

Request - read-out composite z-score | tested on Fibrinogen (Alexa647-labelled) | molecule COc1cc(NN2C(C(O)c3ccco3)C=CC3C(=O)N(C)C(=O)C32)cc(OC)c1OC (centres undefined)
0.127

---

z-score values by entry
test: viability profiling in MM1S myeloma cells – cell-based, resazurin fluorescence, basal, 24 h, PK04 Diversity Set, profiling panel (AID 1174); settings: higher = more signal, called active from +8 up or from −8 down;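 also: MM1S multiple myeloma cell line; test concentration not given here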
Respond using a number only.

Worked set:
- COCCOC(=O)N1C(=O)[C@@]2(c3cc(C#CC4(O)CCCCCC4)ccc31)[C@H](C(=O)Nc1nc3ccccc3s1)[C@H]1C(=O)O[C@H](c3ccccc3)[C@H](c3ccccc3)N1[C@@H]2c1ccc(O)cc1: -0.858
- C=CC[C@]1(C(=O)N2CCCCC2)N=C(c2ccc(OCCCO)cc2)O[C@H]1c1ccccc1CN=[N+]=[N-]: -0.398
- O=C(O)[C@@H]1C[C@@H]2C(=O)N3CCC[C@H]3C(=O)N2[C@@H]1c1ccc(O)cc1: -0.695

For the molecule CCCC=C(CCC)[C@@H](NS(=O)(=O)CC12CCC(CC1=O)C2(C)C)c1ccc(C(=O)OC)cc1 (stereo not given in full) , what z-score is on record?
0.16

---

experiment: growth effects on S. cerevisiae YJM789 – YJM789 clinical isolate, OD600, 24 h, basal, primary screen (AID 1089); settings: higher = more signal, called active from +8 up or from −8 down;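 also: growth of clinical yeast isolate S. cerevisiae YJM 789 seeded 1000 cells per well; test concentration not given here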
z-score values by entry
Respond using a number only.

• CC(C)NC(=O)[C@@]1(c2ccc([N+](=O)[O-])cc2)CC(=O)N(C2CCCCC2)[C@@H]1c1ccc(CO)cc1 = 0.359
• COC(=O)C(CC#Cc1ccc2c(c1)[C@]1(C(=O)N2)[C@H](c2ccc(O)cc2)N2[C@H](c3ccccc3)[C@H](c3ccccc3)OC(=O)[C@H]2[C@@H]1C(=O)NC[C@H](O)c1ccccc1)C(=O)OC = 0.31
• COc1ccc([Si](C)(C)[C@H]2[C@H](CC(=O)N3CCC[C@H]3CO)O[C@@]3(C(=O)N(Cc4ccc(N5CCOC5=O)cc4)c4ccccc43)[C@@H]2C)cc1 = -0.546
• CC(C)N1C(=O)C[C@@](C(=O)O)(c2ccc([N+](=O)[O-])cc2)[C@H]1c1ccc(CO)cc1 = 0.548
• CCCCCCCCCC(O)C1C=CC2C(=O)N(c3ccccc3)C(=O)C2N1Nc1cc(OC)c(OC)c(OC)c1 (stereo not given) = 1.13

For the molecule CCCCCCCCCCC(O)C1C=CC2C(=O)N(c3ccccc3)C(=O)C2N1Nc1ccc(C#N)cc1 (stereo not given) , what z-score is on record?
0.614

---

assay: probe aLefty2 binding to arrayed compounds – biochemical, biotinylated probe, 635/667 nm fluorescence, primary screen (AID 1094); settings: small-molecule microarray, higher = more signal;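 also: score merges spot fluorescence near 667 nm with spot signal-to-noise ratio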
Decision: composite z-score compared against -0.1; not below it gives met, below it gives not met.

The examples below pair each entry with its known result.
• COC(=O)C1=CC(CCCO)=CC(c2ccc(CN3CCCC3)cc2)N(Cc2cccc(OC(F)(F)F)c2)C=C1C(=O)OC (stereo unspecified) = met
• C=C(COC)/C(=C/C[C@H](OC(=O)c1ccncc1)c1ccccc1OCCO)c1cc(C(=O)OC)ccc1OC = not met

Determine whether this compound has composite z-score no lower than -0.1: CO[C@H]1O[C@H](CO)[C@@H](OC(=O)Nc2ccccc2)[C@H](OC(=O)c2cc3ccccc3[nH]2)[C@H]1OC(=O)c1cc2ccccc2[nH]1
met

Determine whether this compound has composite z-score no lower than -0.1: COc1ccc([C@H]2OC[C@@H]3C[C@H](Cc4ccccc4)C(=O)N32)cc1
not met

Determine whether this compound has composite z-score no lower than -0.1: Cc1cc(C)c(C(O)C2C=CC3C(=O)N(c4ccccc4)C(=O)C3N2Nc2ccccc2F)c(C)c1 (stereo unspecified)
met

Determine whether this compound has composite z-score no lower than -0.1: CCCCC(CC)C(O)C1C=CC2C(=O)N(c3ccccc3)C(=O)C2N1Nc1ccccc1F (stereo unspecified)
met

---

assay: probe aDKK1 binding to arrayed compounds – biochemical, biotinylated probe, 635/667 nm fluorescence, primary screen (AID 1099); conditions: small-molecule microarray, higher = more signal;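 also: score merges 667nm spot fluorescence with signal to noise across triplicate slides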
observationType: composite z-score

Worked set:
• COc1ccc([Si](C)(C)[C@@H]2[C@@H](CCO)O[C@]3(C(=O)N(Cc4ccccc4)c4ccc(N5C(=O)c6cccc7cccc5c67)cc43)[C@H]2C)cc1 = 0.0194
• Cc1ccc(S[C@]2(C(=O)NC(C)C)CC(=O)N(Cc3cc(C(F)(F)F)cc(C(F)(F)F)c3)[C@@H]2c2ccc(CO)cc2)cc1 = -0.227
• CC(C)NC(=O)[C@@]1(c2ccc([N+](=O)[O-])cc2)CC(=O)N(C2CCCCC2)[C@@H]1c1ccc(CO)cc1 = -0.723
• Cc1ccccc1C(O)C1C=CC2C(=O)NC(=O)C2N1Nc1ccccn1 (stereo unspecified) = 0.145

For the compound COC(=O)C(CC#Cc1ccc2c(c1)[C@]1(C(=O)N2)[C@H](c2ccc(O)cc2)N2[C@H](c3ccccc3)[C@H](c3ccccc3)OC(=O)[C@H]2[C@@H]1C(=O)NC[C@H](O)c1ccccc1)C(=O)OC , what composite z-score is on record?
0.6

For the compound CC1CC/C=C\[C@H]2OC34C=CCN(C(C)(C)C)C(=O)[C@H]3N(CCCCCO)C(=O)[C@@H]4C2C(=O)O1 (stereo partly specified) , what composite z-score is on record?
-0.27

For the compound CC(C)=C1C(=O)C(c2ccccc2)=C2CN3C(=O)N(CCc4ccccc4)C(=O)[C@]3(Cc3ccc(C(F)(F)F)cc3)[C@H]21 , what composite z-score is on record?
1.18

For the compound CN(C)C(=O)[C@]1(Cc2ccccc2CN=[N+]=[N-])N=C(c2ccc(OCCCO)cc2)O[C@@H]1c1ccccc1 , what composite z-score is on record?
0.161

For the compound C=C[C@@H](CO)N(Cc1ccc(OC)cc1)S(=O)(=O)c1ccc(Br)cc1 , what composite z-score is on record?
0.188

For the compound Cc1ccc(NN2C(C(O)c3c(F)cccc3Cl)C=CC3C(=O)N(C4CCCCC4)C(=O)C32)cc1 (stereo unspecified) , what composite z-score is on record?
0.827

For the compound C=C[C@@H](OC)[C@H](OC(=O)Nc1ccc(OC)cc1)c1ccc(O)c(F)c1 , what composite z-score is on record?
-0.515

For the compound COC(=O)[C@@]1(Cc2ccc(OC)cc2)[C@H]2c3cc(C(=O)N(C)C)n(Cc4ccc(C)o4)c3C[C@H]2CN1C(=O)c1ccccc1 , what composite z-score is on record?
0.766
